Test system: P. falciparum NF54 (drug-sensitive strain)
protocol details: In vitro antiplasmodial assay (parasite lactate dehydrogenase), chloroquine-sensitive NF54 strain
Assay type: cell-based, Plasmodium falciparum
run parameters: Plasmodium falciparum; sensitive (NF54) strain of P. falciparum; pLDH assay, 48 h; mean of ≥2 independent experiments; read-out: PfNF54 IC50
pIC50: −log10 of the molar value.
readout label: pIC50

For orientation, consider the following solved cases.
COc1ccc(/C=C/C(=O)c2ccc(S(=O)(=O)NCCNc3ccnc4cc(Cl)ccc34)cc2)cc1OC [Compound 19] : 6.48
O=C(/C=C/c1ccc(OC(F)(F)F)cc1)c1ccc(S(=O)(=O)NCCCNc2ccnc3cc(Cl)ccc23)cc1 [Compound 27] : 6.29
Cc1ccc(/C=C/C(=O)c2ccc(S(=O)(=O)NCCNc3ccnc4cc(Cl)ccc34)cc2)cc1 [Compound 22] : 6.41
CC(=O)c1ccc(S(=O)(=O)NCCCNc2ccnc3cc(Cl)ccc23)cc1 [Compound 5] : 6.32
O=C(/C=C/c1c(F)cccc1F)c1ccc(S(=O)(=O)NCCCNc2ccnc3cc(Cl)ccc23)cc1 [Compound 10] : 6.27
COc1ccc(/C=C/C(=O)c2ccc(S(=O)(=O)NCCCNc3ccnc4cc(Cl)ccc34)cc2)cc1 [Compound 12] : 6.96
O=C(/C=C/c1ccc2c(c1)OCO2)c1ccc(S(=O)(=O)NCCCNc2ccnc3cc(Cl)ccc23)cc1 [Compound 26] : 6.16
COc1ccc(/C=C/C(=O)c2ccc(S(=O)(=O)NCCNc3ccnc4cc(Cl)ccc34)cc2)cc1 [Compound 17] : 6.31

P. O=C(/C=C/c1ccc(F)c(F)c1)c1ccc(S(=O)(=O)NCCCNc2ccnc3cc(Cl)ccc23)cc1 [Compound 13]
Q. O=C(/C=C/c1ccc(F)cc1F)c1ccc(S(=O)(=O)NCCCNc2ccnc3cc(Cl)ccc23)cc1 [Compound 18]
R. O=C(/C=C/c1ccccc1Br)c1ccc(S(=O)(=O)NCCCNc2ccnc3cc(Cl)ccc23)cc1 [Compound 8]
S. O=C(/C=C/c1ccco1)c1ccc(S(=O)(=O)NCCCNc2ccnc3cc(Cl)ccc23)cc1 [Compound 21]
T. O=C(/C=C/c1cc(F)ccc1F)c1ccc(S(=O)(=O)NCCCNc2ccnc3cc(Cl)ccc23)cc1 [Compound 20]
Please order the records by their reported pIC50, lowest number first. Reply format: the labels, ordered as requested.
S, P, T, Q, R
